# STUDY_TARGET: T1, TnMUC1 peptide (fully glycosylated), biotinylated
# T1 construct: Two batches (36-2 and 65-1) of the same peptide; also called 36-2; 7-36-2
# METHOD: SPR (Biacore T200), peptide 36-2 on CAP chip, scFv as analyte, 1:1 fit; average
ENDPOINT_LABEL: kon (M⁻¹ s⁻¹)
Number only, in M⁻¹ s⁻¹; omit the unit.

BINDER	MEASURE_UNIT	kon
humanised anti-TnMUC1 scFv protein 9P1 (88A), VL-VH humanised control (scFv, Control scFv designed from a humanised antibody of WO2015/159076 (10D2 is said to come from Ab2, so 10D1 by implication from Ab1); Neat supernatant of construct 10D1 in the Octet assay; purified protein 9P1 in Biacore and flow cytometry; also called 10D1) scFv: DIVMTQSPDSLAVSLGERATINCKSSQSLLNSGDQKNYLTWYQQKPGQPPKLLIYWASTRESGVPDRFSGSGSGTDFTLTISSLQAEDVAVYYCQNDYSYPLTFGQGTKVEIKGGGGSGGGGSGGGGSGGGGSQVQLVQSGAEVKKTGSSVKVSCKASGYTFTDHAIHWVRQAPGQALEWMGHFSPGNTDIKYNDKFKGRVTLTVDRSMSTAYMELSSLRSEDTAMYYCKTSTFFFDYWGQGTMVTVSSAAAHHHHHH	M⁻¹ s⁻¹	67800
humanised anti-TnMUC1 scFv protein 13P24 (77A), L3-H5 (scFv, Two purification lots (13P24, 28P24); also called 28P24; 6D24) scFv: ELVMTQSPDSLAVSLGERATINCKSSQSLLNSGDQKNYLTWYQQKPGQPPKLLIFWASTRESGVPDRFSGSGSGTDFTLTISSLQAEDVAVYYCQNDYSYPLTFGQGTKLEIKGGGGSGGGGSGGGGSGGGGSQVQLVQSGAEVKKPGSSVKVSCKASGYTFTDHAIHWVRQAPGQGLEWIGHFSPGNTDIKYNDKFKGRATLTVDRSTSTAYMELSSLRSEDTAVYFCKTSTFFFDYWGQGTTVTVSSAAAHHHHHH	M⁻¹ s⁻¹	28700

// moving on: another record for kon
[in] Entry under review: humanised anti-TnMUC1 scFv protein 11P6 (89A), L0-H5 (scFv, Supernatant of construct 6D6 in the Octet assay; purified 11P6 elsewhere; also called 6D6) scFv: DIVMTQSPDSLAVSLGERATINCKSSQSLLNSGDQKNYLTWYQQKPGQPPKLLIYWASTRESGVPDRFSGSGSGTDFTLTISSLQAEDVAVYYCQNDYSYPLTFGQGTKLEIKGGGGSGGGGSGGGGSGGGGSQVQLVQSGAEVKKPGSSVKVSCKASGYTFTDHAIHWVRQAPGQGLEWIGHFSPGNTDIKYNDKFKGRATLTVDRSTSTAYMELSSLRSEDTAVYFCKTSTFFFDYWGQGTTVTVSSAAAHHHHHH . Reported kon?
[out] 51500
